Hi there, I'd appreciate the recorded growth inhibition for every entry that follows.
Test Summary: NCI Yeast Anticancer Drug Screen. Data for the rad50 strain (AID 155);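 further: 0% = growth of vehicle-only cultures of the same strain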
Conditions Used: S. cerevisiae rad50 strain growth inhibition; at 50.0 µM; active compounds read high
The panel holds about 79,000 compounds, 15% with a hit somewhere; the sample as a whole holds those more often. The source made the active and inactive calls. No stated cut-off is given here; in the data, active means growth inhibition above about 70%; inactive means the rest.

>  <Molecule>
N#Cc1cccc(N2C(=O)c3c(c(-c4ccccc4)c(-c4ccc(Sc5ccc(-c6c(-c7ccccc7)c7c(c(-c8ccccc8)c6-c6ccccc6)C(=O)N(c6cccc(C#N)c6)C7=O)cc5)cc4)c(-c4ccccc4)c3-c3ccccc3)C2=O)c1

>  <Quantity>
growth inhibition

>  <Result>
-48.6% (inactive)

$$$$
>  <Molecule>
COc1ccc(-c2cc(-c3ccccc3)n(C3OCC(OC(C)=O)C(OC(C)=O)C3OC(C)=O)c(=S)c2C#N)cc1 (centres undefined)

>  <Quantity>
growth inhibition

>  <Result>
12.1% (inactive)

$$$$

State the recorded growth inhibition for every item in the following list.
1. CSc1nc(=O)[nH]c2c1[nH]c(=O)n2-c1ccccc1
2. O=C(CC(c1ccccc1)C1CCCC1=O)c1ccccc1 (centres undefined)
3. CC1C=C(OC(=O)c2ccccc2)C(=O)C(n2cc(F)c(=O)n(C(=O)c3ccccc3)c2=O)O1 (centres undefined)
4. CNC(=S)NNC(=O)c1ccncc1
5. COc1ccc(C2OC2C(=O)c2ccccc2)cc1 (centres undefined)

1.2% (inactive)
11.1% (inactive)
43.2% (inactive)
11.4% (inactive)
6.75% (inactive)

State the recorded growth inhibition for every item in the following list.
1. COc1cc(/C=C2/C(=O)N=C(NC(C)=O)N2C)ccc1OC(C)=O
2. O=C(Oc1ccc(-c2ccccc2)cc1)c1cccc([N+](=O)[O-])c1
3. CCCCNC(=O)Oc1c(Cl)cc(Cl)c(Cl)c1[N+](=O)[O-]
4. Cc1occc1C(=S)Nc1ccc(Cl)c(/C=N/OC2CCCC2)c1
5. CC1=CC(=O)C(=O)c2ccccc21
6. CC1OC(n2ccc(NC(=O)c3ccc(NC(=O)C(C)(N)CO)cc3)nc2=O)CCC1OC1OC(C)C(N(C)C)C(O)C1O (centres undefined)

["-35.9% (inactive)", "-10.1% (inactive)", "16.2% (inactive)", "13.2% (inactive)", "-34.9% (inactive)", "30.4% (inactive)"]

# query: growth inhibition of entry BrC1=C(c2ccccc2)C2CCCCC2C1(Br)c1ccccc1 (centres undefined)
96.2% (active)

---

Test Summary: NCI Yeast Anticancer Drug Screen. Data for the mlh1 rad18 strain (AID 175)
Conditions Used: S. cerevisiae mlh1 rad18 strain growth inhibition; at 50.0 µM; active compounds read high
Experimental: Growth inhibition of yeast strains with defined genetic alterations is measured as a screen for potential anti-cancer activity. Selected strains with alterations in DNA damage repair or cell cycle control were exposed to compounds and growth inhibition was measured relative to vehicle treated controls. The strain used in this assay is mlh1 rad18
Compounds without any hit were thinned out: in the full panel of roughly 79,000, 15% have a hit.
Rule: growth inhibition under 10% gives false (0), otherwise true (1).

Consider the worked cases shown below.
>  <Compound>
C/C(=N\NS(=O)(=O)c1ccc([N+](=O)[O-])cc1)c1ccc[n+]([O-])n1

>  <Group>
false (0)

$$$$
>  <Compound>
CN(c1c(Cl)cccc1Cl)S(=O)(=O)c1ccccc1[N+](=O)[O-]

>  <Group>
false (0)

$$$$

Decide: growth inhibition of N#CC1=C(O)/C(=C\C=C\c2ccccc2)N(C(=O)c2ccccc2)C1=N >= 10%?
true (1)

Item: CN(C)CCCNC(=O)N/N=C\c1cccc2ccccc12
false (0)

Item: O=C(C1=Cc2ccccc2OC1)N1CCN(c2ccccc2Cl)CC1
true (1)

Item: CCCC(=O)Nc1cc(/C=C/C(=O)N2C[C@H]3C[C@@]34C2=CC(=O)c2[nH]cc(C)c24)n(C)c1
true (1)

---

Test Summary: NCI Yeast Anticancer Drug Screen. Data for the rad50 strain (AID 155);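 further: 0% = growth of vehicle-only cultures of the same strain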
Conditions Used: S. cerevisiae rad50 strain growth inhibition; at 50.0 µM
About 79,000 compounds went through this panel and 15% of them were active in at least one assay; those are over-represented in the sample as a whole. Activity calls are given as the source filed them. Cut-off read from the data, not from the text of the source: active = growth inhibition above about 70%; inactive = the rest.
A correct response names exactly one class from Y = active, N = inactive

Recorded test outcome, item N[C@@H](CO)[C@@H](O)c1ccc([N+](=O)[O-])cc1
N

Item: Cc1ccc2c(c1)C(C(C)C)CCC2(C)C (stereo not drawn)
N

Item: CC1(C)N=C(N)N=C(N)N1c1ccc(NC(=O)Nc2ccccc2)cc1
N

---

Test Summary: NCI Yeast Anticancer Drug Screen. Data for the sgs1 mgt1 strain (AID 161);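 further: 0% = growth of cultures given vehicle only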
Conditions Used: S. cerevisiae sgs1 mgt1 strain, at 50.0 µM, active compounds read high
This is part of a sample that, as a whole, favours compounds with a hit. Of some 79,000 tested, about 15% had one in any assay.
Quantity: growth inhibition (%)
Give bare numbers, in %.

Illustrative cases are given below, each with its answer.
>  <Compound>
O=C1N=C2SCCCN2C1(c1ccccc1)c1ccccc1

>  <Quantity>
growth inhibition

>  <Numeric Readout>
-3.4

$$$$
>  <Compound>
O=c1cc(-c2cccnc2)oc2ccc(Cl)cc12

>  <Quantity>
growth inhibition

>  <Numeric Readout>
7.7

$$$$

State the recorded growth inhibition for every item in the following list.
1. O=C(Nc1ccccc1)C(c1ccccc1)N(Nc1ccccc1Cl)c1ccccc1Cl (centres undefined)
2. Brc1ccc(C2CC(c3cccc4ccccc34)=Nc3ccccc3S2)cc1 (centres undefined)
3. O=[N+]([O-])c1ccc(N/N=C2/CC(c3ccccc3)C(c3ccccc3)=C2Cl)c([N+](=O)[O-])c1 (centres undefined)
4. COc1ccc([N+](=O)[O-])c2ccc(=O)oc12
5. O=C1CSC2=NC3=C(CSC/C3=C\c3ccccc3)C(c3ccccc3)N12 (centres undefined)
6. CCOC(=O)C(CSC(=O)c1ccccc1)NC(=O)OCc1ccccc1 (centres undefined)
7. CCC(C)C(N)C1=NC(C(=O)NC(CC(C)C)C(=O)NC(CCC(=O)O)C(=O)NC(C(=O)NC2CCCCNC(=O)C(CC(N)=O)NC(=O)C(CC(=O)O)NC(=O)C(Cc3cnc[nH]3)NC(=O)C(Cc3ccccc3)NC(=O)C(C(C)CC)NC(=O)C(CCCN)NC2=O)C(C)CC)CS1 (centres undefined)
8. COc1ccc(OC)c2c(=O)cc(C)oc12

[17.1, -10.9, 9.45, -4.1, 21.2, 21.2, 0.2, -16.3]

State the recorded growth inhibition for every item in the following list.
1. Nc1nc2cc(COc3ccc(C(=O)O)cc3)ccc2nc1-c1ccccc1
2. O/N=C/C(=Nc1ccc2ccccc2c1)NO
3. CN(C)Cc1cc(Cl)c(O)c(CN(C)C)c1
4. Cc1ccc(-c2cc(=O)c3cc(C)c(C)c(C(=O)O)c3o2)cc1N

[-13.8, -4.5, -38.4, 11.9]

---

Test Summary: NCI Yeast Anticancer Drug Screen. Data for the sgs1 mgt1 strain (AID 161);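 further: 0% = growth of cultures given vehicle only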
Conditions Used: S. cerevisiae sgs1 mgt1 strain, at 50.0 µM, active compounds read high
The panel holds about 79,000 compounds, 15% with a hit somewhere; the sample as a whole holds those more often.
Quantity: growth inhibition (%)
Answers are plain numbers, in %.

Illustrative cases are given below, each with its answer.
>  <Molecule>
Nc1ccnc(=O)[nH]1

>  <growth inhibition (%)>
-18.8

$$$$
>  <Molecule>
[N-]=[N+]=NC1CC(n2cc(Cc3ccccc3)c(N)nc2=O)OC1CO (stereo not given)

>  <growth inhibition (%)>
11.4

$$$$
>  <Molecule>
CCc1ccc(/C=C/C(=O)C(C)CN(C)C)cc1 (stereo not given)

>  <growth inhibition (%)>
-2.3

$$$$

State the recorded growth inhibition for every item in the following list.
1. CCCCCCCCCCCCCCCC(=O)Oc1ccc(/C(CC)=C(/CC)c2ccc(OC(=O)CCCCCCCCCCCCCCC)cc2)cc1
2. O=C(O)c1cscc1Cc1ccccc1
3. Cc1nnc(N)c(C#N)c1C
4. CC(O)(c1ccc(OCCC[N+](C)(C)C)cc1)C(C)(O)c1ccc(OCCC[N+](C)(C)C)cc1 (stereo not given)
5. CSc1nc(SC)c(Nc2cccc(C)c2)c(SC)n1
6. CC1=C(C(=O)NC2CCCCC2)CC(C(=O)NC2CCCCC2)=C(C)N1
7. Cc1cccc(C(=O)OCc2ccccc2CN2CCCC2)c1
8. CCc1cc(C(=O)NN)c2ccccc2n1

1. 8.55
2. -1.7
3. 16.6
4. -39
5. 4.2
6. -26.2
7. -10.1
8. -10.6

State the recorded growth inhibition for every item in the following list.
1. O=C(Nc1ccc([N+](=O)[O-])cc1)N1CCOCC1
2. CCC(=O)C(CC)c1ccccc1OC (stereo not given)

21.5
4.65

State the recorded growth inhibition for every item in the following list.
1. COC(=O)Nc1ccc(NC(=O)c2cscn2)c(NC(=O)OC)n1
2. O=[N+]([O-])c1ccc(Cl)cc1N/N=C/c1ccnc2ccccc12
3. Cc1cc(=O)[nH]c(N/N=C/c2ccc(O)cc2)n1
4. Clc1ccc(OCc2nnc3n2N=C(c2ccc(Br)cc2)CS3)cc1
5. C=C1C(=O)O[C@@H]2[C@H]3O[C@]3(C)CCC=C(C)CC[C@@H]12
6. CCOC(=O)NN(C(=O)OCC)C(C(C)=O)c1ccccc1 (stereo not given)
7. CCNc1nc2ccccc2nc1NCC
8. Cc1c[n+]([O-])cc(C)c1N=Nc1ccc(N(C)C)cc1

1. -2.3
2. -28.6
3. -14.7
4. 8.8
5. 2.15
6. -10.8
7. 1.45
8. -7.95

State the recorded growth inhibition for every item in the following list.
1. COc1cc(-c2ccc(Br)[nH]2)[nH]c1C=NCC(C)C
2. N#Cc1ccccc1C(Cl)(Cl)c1cnccn1
3. CC1C(c2ccccc2O)c2cc3c(cc2OC1N1CCCC1)OCO3 (stereo not given)

1: 78.8; 2: -10.7; 3: 58.5

State the recorded growth inhibition for every item in the following list.
1. O=S(=O)(c1ccccc1)C1C2CCC(O2)C1S(=O)(=O)c1ccccc1 (stereo not given)
2. CCN(C/C=C/CN(CC)C(=S)Nc1ccccc1)C(=S)Nc1ccccc1
3. Cc1ccc(-c2nnc(NC(=O)Nc3ccc(Cl)cc3)o2)cc1
4. Cc1cc(C)c(C#[N+][O-])c(C)c1C#[N+][O-]
5. CC(=O)OCC(=O)O[C@@H]1[C@H]2[C@@H](OC(=O)c3ccccc3)[C@@H](C)C[C@]2(O)[C@H](OC(C)=O)[C@@]2(C)C[C@]1(OC(C)=O)C[C@H]1C(=O)C(C)(C)[C@@H](OC(C)=O)[C@@H]12
6. Cc1ccc(C(CCCl)OC(C)C)cc1 (stereo not given)

1. 15.7
2. 5.2
3. 4.3
4. -5.8
5. -0.3
6. 22

State the recorded growth inhibition for every item in the following list.
1. O=C(NC1CCCCC1)c1cccnc1
2. [N-]=[N+]=Nc1c(Cc2ccccc2)c(Cl)nc2ccccc12
3. O=C(Nc1ccccc1-c1n[nH]c(=S)[nH]c1=O)C(F)(F)F
4. Nc1nc2c(c(=O)[nH]1)C(c1ccccc1)C(c1ccccc1)C2 (stereo not given)
5. CCOC(=O)c1nc2c([nH]1)c(=O)n(C)c(=O)n2C
6. CCN(CC)CC
7. S=C(SSSC(=S)N(C1CCCCC1)C1CCCCC1)N(C1CCCCC1)C1CCCCC1
8. COc1cc(/C=C2/C(=O)N=C(NC(C)=O)N2C)ccc1OC(C)=O

-17.1
62.5
-10.3
3.8
2.3
-21.2
10.1
-14.7

State the recorded growth inhibition for every item in the following list.
1. COC12C=CC(CC1)C(C)(C)C2=O (stereo not given)
2. O=C(NCCS(=O)(=O)N1C(=O)C2CCCN2C(=O)[C@@H]1Cc1ccccc1)OCc1ccccc1 (stereo not given in full)

1. -3.9
2. -4.35

State the recorded growth inhibition for every item in the following list.
1. CC(C)c1cc(C(F)(F)F)nc(NNc2nc(C(C)C)cc(C(F)(F)F)n2)n1
2. CC(=O)c1ccccc1NC(=O)C(=O)C(C(=O)c1ccccc1-c1ccccc1)C1OC(=O)c2ccccc21 (stereo not given)
3. Cc1nc(N)nc(C)c1Cl
4. CCCCOCCOCCO

[-16.5, 8.3, 3.85, -15.7]

# query: growth inhibition of entry O=[N+]([O-])c1ccc(C2=NCC=CCO2)cc1
7.55

Reference source for all entries: PubChem BioAssay (NCI)
